# Test system: Pasteurella multocida pm002
# testProtocol: MIC broth microdilution, P. multocida pm002 (wild type)
# Type: cell-based
reportedMetric: MIC (μg/ml) Broth microdilution (µg/mL)
Give the quantity in µg/mL, number only.

Illustrative cases are given below, each with its answer.
{"columns": ["molecule", "studyTarget", "unitsSymbol", "MIC (μg/ml) Broth microdilution"],
 "data": [
  ["CC(C)CC(N)C(=O)N(C)C(C)C(NC(=O)C(CC(C)C)NC(=O)NC(Cc1c[nH]c2ccccc12)C(=O)O)C(=O)NCC1CC(O)C(n2ccc(=O)[nH]c2=O)O1 (centres unmarked) [Compound 108]", "Pasteurella multocida pm002", "µg/mL", 512],
  ["CC(N)C(=O)N(C)C(C)C(NC(=O)C(Cc1ccc(F)cc1)NC(=O)NC(Cc1ccc(O)cc1)C(=O)O)C(=O)NCC1CC(O)C(n2ccc(=O)[nH]c2=O)O1 (centres unmarked) [Compound 157]", "Pasteurella multocida pm002", "µg/mL", 256],
  ["CSCCC(NC(=O)NC(Cc1c[nH]c2ccccc12)C(=O)O)C(=O)NC(C(=O)NCC1CC(O)C(n2ccc(=O)[nH]c2=O)O1)C(C)N(C)C(=O)C(N)Cc1ccccc1 (centres unmarked) [Compound 111]", "Pasteurella multocida pm002", "µg/mL", 512],
  ["CSCCC(NC(=O)NC(Cc1c[nH]c2ccccc12)C(=O)O)C(=O)NC(C(=O)NCC1CC(O)C(n2ccc(=O)[nH]c2=O)O1)C(C)N(C)C(=O)C(C)N (centres unmarked) [Compound 167]", "Pasteurella multocida pm002", "µg/mL", 128]
]}

Ask: What value of MIC (μg/ml) Broth microdilution has been reported for the following molecule? CC(N)C(=O)N(C)C(C)C(NC(=O)C(Cc1ccc(C(F)(F)F)cc1)NC(=O)NC(Cc1c[nH]c2ccccc12)C(=O)O)C(=O)NCC1CC(O)C(n2ccc(=O)[nH]c2=O)O1 (centres unmarked) [Compound 146]
Reply: 64

###

# Tested on: Pseudomonas aeruginosa PAM 1135
# testProtocol: MIC broth microdilution, P. aeruginosa PAM 1135 (high level UPA resistance)
# Assay type: cell-based
# runConditions: P. aeruginosa PAM 1135 UPA1^r
reportedMetric: MIC (μg/ml) Broth microdilution

# example entries with known answers
{"columns": ["molecule", "MIC (μg/ml) Broth microdilution"],
 "data": [
  ["CC(N)C(=O)N(C)C(C)C(NC(=O)C(Cc1ccccc1)NC(=O)NC(Cc1c[nH]c2ccccc12)C(=O)O)C(=O)NCC1CC(O)C(n2ccc(=O)[nH]c2=O)O1 (stereo not shown)", "256 µg/mL"],
  ["CC(N)C(=O)N(C)C(C)C(NC(=O)C(Cc1ccccc1)NC(=O)NC(Cc1ccccc1)C(=O)O)C(=O)NCC1CC(O)C(n2ccc(=O)[nH]c2=O)O1 (stereo not shown)", ">512 µg/mL"],
  ["C[C@H](N)C(=O)N(C)[C@@H](C)[C@H](NC(=O)[C@H](Cc1ccc2ccccc2c1)NC(=O)N[C@@H](Cc1c[nH]c2ccccc12)C(=O)O)C(=O)NC[C@H]1C[C@@H](O)[C@H](n2ccc(=O)[nH]c2=O)O1", ">512 µg/mL"]
]}

Ask: Suppose we examine the molecule CC(N)C(=O)N(C)C(C)C(NC(=O)C(Cc1csc2ccccc12)NC(=O)NC(Cc1ccc(O)cc1)C(=O)O)C(=O)NCC1CC(O)C(n2ccc(=O)[nH]c2=O)O1 (stereo not shown) ; what MIC (μg/ml) Broth microdilution value has been reported?
Reply: >512 µg/mL

Ask: Suppose we examine the molecule CSCCC(NC(=O)NC(Cc1c[nH]c2ccccc12)C(=O)O)C(=O)NC(C(=O)NCC1CC(O)C(n2ccc(=O)[nH]c2=O)O1)C(C)N(C)C(=O)C(N)Cc1ccc(F)cc1 (stereo not shown) ; what MIC (μg/ml) Broth microdilution value has been reported?
Reply: 256 µg/mL

Ask: Consider the molecule shown here: CC(C)CC(N)C(=O)N(C)C(C)C(NC(=O)C(Cc1ccccc1)NC(=O)NC(Cc1c[nH]c2ccccc12)C(=O)O)C(=O)NCC1CC(O)C(n2ccc(=O)[nH]c2=O)O1 (stereo not shown) What is its recorded MIC (μg/ml) Broth microdilution?
Reply: 256 µg/mL

Ask: // returns reported MIC (μg/ml) Broth microdilution for input C[C@@H]([C@H](NC(=O)[C@H](Cc1ccccc1)NC(=O)N[C@@H](Cc1c[nH]c2ccccc12)C(=O)O)C(=O)NC[C@H]1C[C@@H](O)[C@H](n2ccc(=O)[nH]c2=O)O1)N(C)C(=O)CN
Reply: >512 µg/mL

Ask: Endpoint output: MIC (μg/ml) Broth microdilution of CSCCC(N)C(=O)N(C)C(C)C(NC(=O)C(CCSC)NC(=O)NC(Cc1c[nH]c2ccccc12)C(=O)O)C(=O)NCC1CC(O)C(n2ccc(=O)[nH]c2=O)O1 (stereo not shown) . Value?
Reply: 256 µg/mL

Ask: Fill blank: measured MIC (μg/ml) Broth microdilution of the molecule CC(N)C(=O)N(C)C(C)C(NC(=O)C(Cc1cscn1)NC(=O)NC(Cc1ccc(O)cc1)C(=O)O)C(=O)NCC1CC(O)C(n2ccc(=O)[nH]c2=O)O1 (stereo not shown) is ____.
Reply: >512 µg/mL

Ask: What value of MIC (μg/ml) Broth microdilution has been reported for the following molecule? CC(N)C(=O)N(C)C(C)C(NC(=O)C(Cc1ccccc1)NC(=O)NC(Cc1ccc2ccccc2c1)C(=O)O)C(=O)NCC1CC(O)C(n2ccc(=O)[nH]c2=O)O1 (stereo not shown)
Reply: >512 µg/mL
